Source listed as patent US11319286B2.

# Assay target: human orexin type 2 receptor (hOX2R) (Homo sapiens, UniProt O43614)
# Sequence (O43614 1-444): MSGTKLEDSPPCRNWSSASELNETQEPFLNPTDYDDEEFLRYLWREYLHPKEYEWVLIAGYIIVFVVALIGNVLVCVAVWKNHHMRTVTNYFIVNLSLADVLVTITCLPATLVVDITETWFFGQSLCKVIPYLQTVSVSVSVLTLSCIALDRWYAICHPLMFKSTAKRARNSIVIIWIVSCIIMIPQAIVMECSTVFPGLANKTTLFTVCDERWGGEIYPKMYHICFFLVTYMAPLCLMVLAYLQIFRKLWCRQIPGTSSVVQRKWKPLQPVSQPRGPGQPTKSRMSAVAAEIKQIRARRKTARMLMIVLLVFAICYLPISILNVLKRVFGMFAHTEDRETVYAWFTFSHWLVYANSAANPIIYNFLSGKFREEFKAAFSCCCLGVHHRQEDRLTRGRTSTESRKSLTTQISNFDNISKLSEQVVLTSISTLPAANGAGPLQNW
# Assay name: Measurement of orexin type 2 receptor agonist activity (calcium fluorescence, Fluo-4 AM, FDSS)
# Recorded conditions: CHO cells forcibly expressing human OX2 receptor; 100% = orexin A (human) 10 nM, 0% = DMSO
pEC50: −log10 of the molar value.

Compound	pEC50
COC(=O)N1CC[C@H](NS(C)(=O)=O)[C@@H]1CO[C@H]1CC[C@@H](c2ccccc2)CC1 (relative stereo)	6.89
CN(C)C(=O)N1CC[C@H](NS(C)(=O)=O)[C@@H]1CO[C@H]1CC[C@@H](c2ccccc2C(F)(F)F)CC1 (relative stereo)	6.57
CS(=O)(=O)N[C@H]1CCN(C(=O)N2CCC2)[C@H]1CO[C@H]1CC[C@@H](c2ccccc2)CC1 (relative stereo)	7.77

---

# Assay target: human orexin type 2 receptor (hOX2R) (Homo sapiens)
# Assay name: Measurement of orexin type 2 receptor agonist activity (calcium fluorescence, Fluo-4 AM, FDSS)
# Recorded conditions: CHO cells forcibly expressing human OX2 receptor; 100% = orexin A (human) 10 nM, 0% = DMSO
Measure name: log10 EC50 (log10 of the value in nM)

Molecule	log10 EC50
CN(C)C(=O)N1CC[C@H](NS(C)(=O)=O)[C@@H]1CO[C@H]1CC[C@@H](c2ccccc2)CC1 (relative stereo) [Example 8]	1.11
CCOC(=O)N1CC[C@H](NS(C)(=O)=O)[C@@H]1CO[C@H]1CC[C@@H](c2ccccc2)CC1 (relative stereo) [Example 3]	2.38
CN(C)C(=O)N1CC[C@H](NS(C)(=O)=O)[C@@H]1COC1CCN(c2ncc(F)cn2)CC1 (relative stereo) [Example 11]	1.91
CS(=O)(=O)N[C@H]1CCN[C@H]1CO[C@H]1CC[C@@H](c2ccccc2)CC1 (relative stereo) [Example 2]	3.56
CS(=O)(=O)N[C@H]1CCN(C(=O)C2CCC2)[C@H]1CO[C@H]1CC[C@@H](c2ccccc2)CC1 (relative stereo) [Example 7]	1.60
CS(=O)(=O)N[C@H]1CCN(C(=O)C2CC2)[C@H]1CO[C@H]1CC[C@@H](c2ccccc2)CC1 (relative stereo) [Example 4]	1.67
CS(=O)(=O)N[C@H]1CCN(C(=O)CC(F)(F)F)[C@H]1CO[C@H]1CC[C@@H](c2ccccc2)CC1 (relative stereo) [Example 5]	2.88
CC(C)(O)C(=O)N1CC[C@H](NS(C)(=O)=O)[C@@H]1CO[C@H]1CC[C@@H](c2ccccc2)CC1 (relative stereo) [Example 10]	2.61
